biological target: serine/threonine protein phosphatase type 5 (PaPP5), catalytic domain PaPP5c (Periplaneta americana, UniProt A0A3Q9NNI4); construct: catalytic domain of PP5 (167-489 amino acids, PP5c), His-tagged, expressed in E. coli; full-length GenBank AZT88974.1; assay: DiFMUP fluorescence phosphatase inhibition assay on purified recombinant PaPP5c
Sequence (A0A3Q9NNI4 167-489): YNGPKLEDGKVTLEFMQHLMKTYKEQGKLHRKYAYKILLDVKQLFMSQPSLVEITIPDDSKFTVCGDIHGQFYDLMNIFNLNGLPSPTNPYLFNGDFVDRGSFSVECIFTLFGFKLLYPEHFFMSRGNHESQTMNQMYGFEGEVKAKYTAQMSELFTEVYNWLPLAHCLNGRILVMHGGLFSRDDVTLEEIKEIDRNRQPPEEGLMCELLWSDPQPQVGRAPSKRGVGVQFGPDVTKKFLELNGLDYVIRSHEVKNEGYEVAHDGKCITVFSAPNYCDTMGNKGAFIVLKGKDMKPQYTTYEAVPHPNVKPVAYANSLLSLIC
measure: IC50 (nM)
Reply with just the number (in nM).

Briefly, IC50 measured for C[C@@]12C(=O)OC(=O)[C@]1(C)[C@H]1CC[C@@H]2O1 [Cantharidin] : 390

Briefly, IC50 measured for O=C1OC(=O)[C@H]2[C@@H]1[C@@H]1CC[C@H]2O1 [Norcantharidin] : 1870
